- System: A-375
- METHOD SUMMARY: Antiproliferative activity against human A375 cells assessed as cell viability at 5 uM after 48 hrs by trypan blue exclusion assay
- Type: functional
- TEST SETTINGS: A-375, 48 h, read-out: Activity
MEASURED QUANTITY: viability at 5 µM

Record summary for CCCCCCC#Cc1ccc(S(=O)(=O)Nc2cccc(-c3csc(NC)n3)c2)cc1 : reported viability at 5 µM = 8.1%

The value of viability at 5 µM measured for the compound CCCCCCC#Cc1cccc(S(=O)(=O)Nc2cccc(-c3csc(NC(C)=O)n3)c2)c1 turned out to be 1.2%

The compound listed as CCCCCCc1ccc(S(=O)(=O)Nc2cccc(-c3csc(NC(C)=O)n3)c2)cc1 has a reported viability at 5 µM of < 1%

Measured viability at 5 µM of CC(=O)Nc1nc(-c2cccc(NS(=O)(=O)c3ccc(C#CCO)cc3)c2)cs1 : 99.3%

The compound identified as C#Cc1ccc(S(=O)(=O)Nc2cccc(-c3csc(NC(C)=O)n3)c2)cc1 registered its viability at 5 µM at 38.3%

viability at 5 µM for CC(=O)Nc1nc(-c2cccc(NS(=O)(=O)c3cccc(Br)c3)c2)cs1 is 67.4%

Quick note, viability at 5 µM for CC(=O)Nc1nc(-c2cccc(NS(=O)(=O)c3ccc(C#CCCc4ccccc4)cc3)c2)cs1 landed at 4.2%

Notebook: CC(=O)Nc1nc(-c2cccc(NS(=O)(=O)c3ccc(C#CC4CCCCC4)cc3)c2)cs1 , viability at 5 µM read as 1.2%

The recorded viability at 5 µM for CC(=O)Nc1nc(-c2cccc(NS(=O)(=O)c3cccc(C#CCO)c3)c2)cs1 is 66.2%

Quick note, viability at 5 µM for CC(=O)Nc1nc(-c2cccc(NS(=O)(=O)c3ccc(C#C[Si](C)(C)C)cc3)c2)cs1 landed at 4.2%

# compound C#Cc1cccc(S(=O)(=O)Nc2cccc(-c3csc(NC(C)=O)n3)c2)c1 ; its viability at 5 µM = 29%

Noted for CCCCCCCCC#Cc1ccc(S(=O)(=O)Nc2cccc(-c3csc(NC(C)=O)n3)c2)cc1 : its viability at 5 µM reads 8.9%

# viability at 5 µM (compound: CC(=O)Nc1nc(-c2cccc(NS(=O)(=O)c3cccc(C#C[Si](C)(C)C)c3)c2)cs1 ) is < 1%

viability at 5 µM for CCCCCCCCc1ccc(S(=O)(=O)Nc2cccc(-c3csc(NC(C)=O)n3)c2)cc1 is < 1%

Briefly, viability at 5 µM measured for CCCCCC/C=C\c1ccc(S(=O)(=O)Nc2cccc(-c3csc(NC(C)=O)n3)c2)cc1 : 2.3%

The recorded viability at 5 µM for entry CCCCCCC#Cc1ccc(S(=O)(=O)Nc2cccc(-c3csc(Nc4ccccc4)n3)c2)cc1 equals 59.2%

viability at 5 µM in this record for CCCCCCC#Cc1ccc(S(=O)(=O)Nc2cccc(-c3csc(NC(C)=O)n3)c2)cc1 : 12.8%

get_value(item= CC(=O)Nc1nc(-c2cccc(NS(=O)(=O)c3ccc(Br)cc3)c2)cs1 , readout=viability at 5 µM) returns 19.7%

Just so you know, measured viability at 5 µM for CCCCC#Cc1ccc(S(=O)(=O)Nc2cccc(-c3csc(NC(C)=O)n3)c2)cc1 came out at 9.3%

Reported viability at 5 µM of CCCCCCC#Cc1ccc(S(=O)(=O)Nc2cccc(-c3csc(N)n3)c2)cc1 : < 1%
